Molecular target: UniProt:Q8ILY1
Sequence (Q8ILY1 entry or part of it): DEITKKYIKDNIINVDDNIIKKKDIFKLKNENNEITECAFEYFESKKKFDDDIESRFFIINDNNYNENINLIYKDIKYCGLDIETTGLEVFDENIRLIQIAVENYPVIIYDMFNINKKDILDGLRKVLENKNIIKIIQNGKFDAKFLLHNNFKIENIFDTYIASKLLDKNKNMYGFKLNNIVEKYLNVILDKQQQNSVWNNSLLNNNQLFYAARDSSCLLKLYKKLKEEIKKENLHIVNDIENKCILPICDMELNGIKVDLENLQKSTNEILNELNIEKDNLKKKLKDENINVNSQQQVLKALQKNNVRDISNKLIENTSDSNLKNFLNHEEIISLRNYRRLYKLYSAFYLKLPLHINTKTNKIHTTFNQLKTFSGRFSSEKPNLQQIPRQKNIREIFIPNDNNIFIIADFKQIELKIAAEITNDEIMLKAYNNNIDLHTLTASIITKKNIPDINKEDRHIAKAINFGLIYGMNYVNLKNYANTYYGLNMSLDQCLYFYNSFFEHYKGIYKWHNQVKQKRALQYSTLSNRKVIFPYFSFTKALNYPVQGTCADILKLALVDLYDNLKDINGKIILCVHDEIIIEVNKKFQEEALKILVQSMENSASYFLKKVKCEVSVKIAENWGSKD
Experiment: Fluorescence-based high-throughput DNA polymerase assay (molecular beacon), primary screen and dose-response
Assay type: biochemical
Conditions: supplemental file 2, sheet IC50 nontoxic compounds; Pf-apPOL
Response field label takes met when IC50 is strictly below 20 µM and not met in all other cases.

[
  {
    "Molecule": "Cc1cc(C)c2c(O)nc(SCC(=O)c3ccc(O)c(O)c3)nc2n1",
    "Label": "met"
  },
  {
    "Molecule": "COc1ccc(C(=O)N2CCc3c(nc4cc(-c5ccccc5Cl)[nH]n4c3=O)C2)cn1",
    "Label": "met"
  },
  {
    "Molecule": "O=C(CSc1nnc(-c2ccncc2)[nH]1)c1ccc(O)c(O)c1",
    "Label": "met"
  },
  {
    "Molecule": "COc1cccc(Oc2c(C(F)(F)F)oc3cc(OC(=O)N(C)C)ccc3c2=O)c1",
    "Label": "not met"
  },
  {
    "Molecule": "COc1cc(Cl)c(C)cc1NC(=O)Cn1ccc2c(=O)[nH]ccc21",
    "Label": "met"
  },
  {
    "Molecule": "O=C(c1c[nH]c2ncccc12)N1CCCCCC1",
    "Label": "not met"
  },
  {
    "Molecule": "Cc1ccc(N2CCC(NC(=O)Cc3cccs3)C2=O)cc1C (stereo not drawn)",
    "Label": "not met"
  },
  {
    "Molecule": "CCCCc1ccc(NC(=O)CSc2nc(O)c(C#N)c(C3CCCCC3)n2)c(C)c1",
    "Label": "met"
  },
  {
    "Molecule": "C#CC(C=CC)OC(=O)c1ccccc1C(=O)O (stereo not drawn)",
    "Label": "met"
  },
  {
    "Molecule": "Cc1ccc(C)c(CSc2nc(C3CCCCC3)c(C#N)c(=O)[nH]2)c1",
    "Label": "met"
  },
  {
    "Molecule": "Cc1ccc(C(=O)/C=C/C=C/C=C/N(C)C)o1",
    "Label": "met"
  },
  {
    "Molecule": "CCSc1nnc(NC(=O)Cc2csc(NC(=O)c3cnccn3)n2)s1",
    "Label": "not met"
  },
  {
    "Molecule": "CCOc1ccc(/C=C2\\N=C(c3cc([N+](=O)[O-])cc([N+](=O)[O-])c3)OC2=O)cc1",
    "Label": "met"
  },
  {
    "Molecule": "Cc1cccc(-c2nnc3ccc(NS(=O)(=O)c4ccc(C)c(C)c4)nn23)c1",
    "Label": "met"
  }
]
